ASSAY COMMENT: splicing luciferase reporter signal modulators, primary screen, spliceosome inhibition project, cell-based, HEK293, splice +/- reporter (AID 1101);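 note: HEK293 cells carrying a splicing-competent luciferase reporter gene; test concentration not given here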
ASSAY CONTEXT: luminescence, 24 h, higher = more signal, called active from +8 up or from −8 down
Listing: z-score of selected compounds
Number only, no unit.

A selection of reference data follows.
COc1ccccc1CN1C(=O)c2ccccc2[C@@H](C(=O)NCC(F)(F)F)[C@@H]1c1ccc(CO)cc1 ... -0.14
Cc1cc2c(nc1C)CCCN2CC(C)ON=C1[C@H]2CCn3c(=O)n(-c4ccccc4)c(=O)n3[C@H]2[C@H](O)[C@@H]2O[C@H]12 (some centres not stated) ... -0.736
CC(C)[C@@H](OCc1ccccc1)[C@H](C)C=NO[C@H](C)c1cn([C@H](CO)Cc2ccccc2)nn1 ... -0.652

Record request: z-score value, item COC(=O)CC=C[C@@H](C)[C@@H](C=NO[C@H](C)c1cn([C@@H]2COC[C@H]2O)nn1)OC
0.605

Also, CC(CCN1CCc2nc(-c3ccccc3)c(-c3ccccc3)cc2C1)=NO[C@H](C)c1cn([C@@H]2COC[C@H]2O)nn1 please.
0.611

Also, COC(=O)[C@@]1(Cc2ccc(F)cc2)[C@H]2c3cc(C(=O)N(C)C)n(Cc4ccc(OC)c(OC)c4)c3C[C@H]2CN1C(=O)c1ccccc1 please.
-3.2

Also, C=CCC(OC(C)=O)[C@@H]1[C@@H](N(Cc2cc3ccccc3o2)C(=O)Cc2ccc(F)cc2)c2cc(OCCCO)ccc2N1C(=O)Cc1ccc(OC)cc1 (some centres not stated) please.
-0.844

====

TEST SYSTEM: Concanavalin-A (Canavalia ensiformis) (UniProt P02866)
Sequence (P02866 whole entry, looked up): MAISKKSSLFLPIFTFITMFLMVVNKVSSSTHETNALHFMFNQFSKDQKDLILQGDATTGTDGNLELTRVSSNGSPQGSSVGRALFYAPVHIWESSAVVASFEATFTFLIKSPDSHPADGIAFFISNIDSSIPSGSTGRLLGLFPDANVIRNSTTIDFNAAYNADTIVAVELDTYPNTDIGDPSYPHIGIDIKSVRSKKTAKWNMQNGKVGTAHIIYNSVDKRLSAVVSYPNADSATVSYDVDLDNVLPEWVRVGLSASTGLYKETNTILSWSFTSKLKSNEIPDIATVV
ASSAY COMMENT: ConA small-molecule binders, primary screen, artefact control for SMM control protein annotation, biochemical, small-molecule microarray, Alexa647 label, 635 nm (AID 1127);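 note: z combines 667 nm emission intensity with signal-to-noise across three replicate slides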
ASSAY CONTEXT: ConA-A647 binding fluorescence, higher = more signal
Listing: composite z-score of selected compounds
Number only, no unit.

C[C@@H](c1ccccc1)N1C(=O)[C@H]2[C@H]3[C@H](O)[C@H](O)CC(=NNC(=O)OCc4ccccc4)[C@H]3CC[C@H]2C1=O ... 0.0811

# input for lookup
Record request: composite z-score value, item O=C(NN=C1C[C@@H](O)[C@@H](O)[C@@H]2[C@@H]3C(=O)N(c4cccc(Oc5ccccc5)c4)C(=O)[C@@H]3CC[C@H]12)OCc1ccccc1
0.186

====

ASSAY COMMENT: PSAC antagonists in infected red cells, primary screen, cell-based, P. falciparum Indochina, OD700, 2 h (AID 1155);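 note: lysis reports solute entry through the parasite surface anion channel PSAC; channel blockers reduce lysis of infected cells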
ASSAY CONTEXT: P. falciparum Indochina infected erythrocytes, osmotic lysis OD700; higher = more signal, called active from +8 up or from −8 down
Could you label it true (1) if measured z-score is 0.5 or higher, and false (0) otherwise?

For orientation, consider the following solved cases.
C=C(COC)/C(=C/C[C@H](OC(=O)c1ccncc1)c1ccc(CO)o1)c1cc(C(=O)OC)ccc1OC ... false (0)
CC(C)=NOCc1ccc(-c2cc(-c3ccccc3)no2)cc1 ... false (0)
O=C(CS)NCCCCCNC(=O)[C@@H]1C[C@@H]2C(=O)N[C@@H](Cc3ccccc3)C(=O)N2[C@@H]1c1ccc(O)cc1 ... true (1)
CC(C)(C)OC(=O)CC[C@]1(C(=O)NCc2ccccc2)N=C(c2ccc(OCCCO)cc2)O[C@H]1c1ccccc1 ... true (1)
CO[C@@H]1COC(=O)CCC[C@@H](C)[C@H](OC)COC(=O)[C@H](Cc2ccccc2)NC(=O)CC=C[C@H]1C ... true (1)
CCOC(=O)[C@H](CC(C)C)NC(=O)CCC1CC(OC(=O)NCc2cccc3ccccc23)CC2(CCCC(COC(=O)NCCc3ccccc3OC)O2)O1 (stereo partly specified) ... false (0)
C[C@@H]1C=CCC(=O)OC[C@H](C)C(=O)N2CCC[C@H]2C(=O)OC1 ... false (0)
CC(CCN1CCc2nc(-c3ccccc3)c(-c3ccccc3)cc2C1)=NO[C@H](C)c1cn([C@@H]2COC[C@H]2O)nn1 ... true (1)
O=C1C[C@@H](O)[C@@H](O)[C@@H]2[C@@H]3C(=O)N(Cc4ccc5c(c4)OCO5)C(=O)[C@@H]3CC[C@@H]12 ... true (1)
CCCC[C@@H]1C[C@H]1[C@@H](NS(=O)(=O)c1cccc2cccnc12)c1ccc(-c2ccccc2)cc1 ... true (1)

Answer whether z-score of CCCC[C@@H](O)C1=C(C)C[C@H]2C(=O)N(Cc3ccccc3)C(=O)[C@H]2[C@H]1CO is greater than or equal to 0.5.
false (0)

Also, CCc1cc2c(nc1CC)CCN(CCC(C)=NOC[C@@H](O)[C@H]1O[C@@H]3OC(C)(C)O[C@@H]3[C@H]1O)C2 please.
false (0)

Also, O=C1[C@H]2[C@H]3[C@H](O)[C@H](O)CC(=NOCc4ccccc4)[C@@H]3CC[C@H]2C(=O)N1C1CCCCC1 please.
false (0)

Also, COc1ccc(CCNC(=O)[C@@H]2c3ccccc3C(=O)N(c3ccc(C)cn3)[C@H]2c2ccc(CO)cc2)cc1 please.
false (0)

Also, CCOC(=O)C[C@H]1[C@H](OC(=O)c2cc3ccccc3oc2=O)[C@@H](NC(=O)c2ccc3ccccc3n2)c2cc(OCCCO)ccc2N1C(=O)c1ccccc1 please.
false (0)

Also, COc1ccccc1CN1C(=O)c2ccccc2[C@@]2(Cc3ccccc3N(C(C)C)C2=O)[C@@H]1c1ccc(CO)cc1 please.
false (0)

====

ASSAY COMMENT: small-molecule binders of probe aInhba, primary screen, biochemical, small-molecule microarray, 635/667 nm fluorescence (AID 1148);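 note: score merges 667nm spot fluorescence with signal-to-noise for antibody binding to printed compounds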
ASSAY CONTEXT: higher = more signal
Could you label it condition met if measured composite z-score is -0.1 or higher, and condition not met otherwise?

For orientation, consider the following solved cases.
COC(=O)[C@@H]1CC[C@H](C)[C@@H](c2ccc(C)cc2)N1C(=O)c1ccc(C=NOC(C)CN2CCCCc3nc(C)c(C)cc32)cc1 (stereo partly drawn) ... condition met
COC(=O)[C@H]1COC(c2ccc(OCCCO)cc2)=N1 ... condition not met
CC(=O)C[C@H](O)[C@@H](NC(=O)OC(C)(C)C)C(C)C ... condition met
O=C(NN=C1C[C@@H](O)[C@@H](O)[C@@H]2[C@@H]3C(=O)N(c4cccc(Oc5ccccc5)c4)C(=O)[C@@H]3CC[C@@H]12)OCc1ccccc1 ... condition not met
CCOC(=O)CCN1C(=O)[C@H]2[C@H]3[C@H](O)[C@H](O)CC(=O)[C@H]3CC[C@H]2C1=O ... condition not met

Answer whether composite z-score of CC(=O)OC[C@H]1O[C@H](CC=NOC[C@@H](C)[C@H](OCc2ccccc2)C(C)C)C=C[C@@H]1OC(C)=O is greater than or equal to -0.1.
condition met

Also, COc1ccc(-c2ccc3c(n2)CCCN3CC(O)CN2CCCc3nc(C)c(C)cc32)cc1 (stereo not drawn) please.
condition met

Also, O=C1[C@H]2[C@H]3[C@H](O)[C@H](O)CC(=NOCc4ccccc4)[C@H]3CC[C@H]2C(=O)N1C[C@@H]1CCCO1 please.
condition met

====

TEST SYSTEM: Pro-neuregulin-1, membrane-bound isoform (Homo sapiens)
ASSAY COMMENT: NRG1 binders on small-molecule microarrays, primary screen, psychiatric disease protein project, biochemical, small-molecule microarray, fluorescence 635/667 (AID 1075);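 note: score combines 667 nm spot fluorescence with signal to noise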
ASSAY CONTEXT: NRG1 binding, 635 nm fluorescence, higher = more signal
Listing: composite z-score of selected molecules
Number only, no unit.

CCOC(=O)NN=C1C[C@@H](O)[C@@H](O)[C@@H]2[C@@H]3C(=O)N(C[C@@H]4CCCO4)C(=O)[C@@H]3CC[C@@H]12 ... 0.121
CCCC[C@@H](O)C1=C(C)C[C@H]2C(=O)N(Cc3ccccc3)C(=O)[C@H]2[C@H]1CO ... 0.0467

Lab request: please report composite z-score under test system Pro-neuregulin-1, membrane-bound isoform (Homo sapiens) for C=CCOC(=O)[C@H]1[C@@H]2C(=O)O[C@@H](c3ccccc3)[C@@H](c3ccccc3)N2[C@@H](c2ccc(OCCOC(=O)[C@H]3C[C@H]4C(=O)N[C@@H](Cc5ccccc5)C(=O)N4[C@H]3c3ccc(O)cc3)cc2)[C@]12C(=O)Nc1ccccc12
0.188

====

Listing: z-score of selected molecules
ASSAY COMMENT: E. coli acrAB mutant growth effects, primary screen, E. coli filamentation inducers, strain DRC39, OD650, 24 h (AID 1178);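 note: growth measured as culture turbidity by optical density at 650 nm; test concentration not given here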
ASSAY CONTEXT: higher = more signal, called active from +8 up or from −8 down
Number only, no unit.

O=C1[C@H]2[C@H]3[C@H](O)[C@H](O)CC(=NOCc4ccccc4)[C@H]3CC[C@H]2C(=O)N1c1cccc(Oc2ccccc2)c1 ... 0.416
COc1ccc([Si](C)(C)[C@H]2[C@H](CCO)O[C@@]3(C(=O)N(Cc4cccc(NC(=O)[C@H](C)O)c4)c4ccccc43)[C@@H]2C)cc1 ... 1.7
COCCOC(=O)N1C(=O)[C@@]2(c3cc(C#Cc4ccc(OC)cc4)ccc31)[C@H](c1ccc(O)cc1)N1[C@H](c3ccccc3)[C@H](c3ccccc3)OC(=O)[C@H]1[C@@H]2C(N)=O ... 0.761
C#CCCCON=C1C[C@@H](O)[C@@H](O)[C@@H]2[C@@H]3C(=O)N(Cc4ccccc4)C(=O)[C@@H]3CC[C@H]12 ... -0.039
CCCC[C@@H](O)C1=C(C)C[C@H]2C(=O)N(Cc3ccccc3)C(=O)[C@H]2[C@H]1CO ... 0.11

Record request: z-score value, item Cc1ccc(S(=O)(=O)N[C@@H]2COC(=O)[C@H](C)COC(=O)CC=C[C@H]2C)cc1
-0.0401

Also, CO[C@H]1COC(=O)CC=C[C@H](C)[C@@H](NS(=O)(=O)c2ccc(C)cc2)COC(=O)CC=C[C@@H]1C please.
-0.721
